molecular target: human glucagon receptor (human) (UniProt P47871); assay: cell-based or functional assay
Sequence (P47871 26-477): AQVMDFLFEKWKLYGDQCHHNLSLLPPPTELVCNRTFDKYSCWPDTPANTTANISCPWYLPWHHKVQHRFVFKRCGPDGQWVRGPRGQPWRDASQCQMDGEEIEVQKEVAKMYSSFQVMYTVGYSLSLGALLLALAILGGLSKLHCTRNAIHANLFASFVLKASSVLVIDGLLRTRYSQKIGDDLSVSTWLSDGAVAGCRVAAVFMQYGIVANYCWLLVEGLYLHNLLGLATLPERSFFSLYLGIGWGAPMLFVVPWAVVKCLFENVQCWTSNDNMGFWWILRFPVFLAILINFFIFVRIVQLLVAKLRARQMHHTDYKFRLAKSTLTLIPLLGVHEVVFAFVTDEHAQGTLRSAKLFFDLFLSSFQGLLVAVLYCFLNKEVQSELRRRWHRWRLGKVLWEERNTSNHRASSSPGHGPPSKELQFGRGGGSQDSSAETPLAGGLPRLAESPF
Here, each record is paired with measured cAMP Rel EC50, nM (1% HSA) data.

Examples with answers:
[[record]]
binder = "YXQGTFTSDFSXXLDKKAQXAFIEYLLEXGPSSGEPPPSGS (synthetic construct; SITE 2: note = 2-Aminoisobutyric Acid; SITE 12: note = L-ornithine; SITE 13: note = alpha-methyl-leucine; SITE 17: note = Lysine is chemically modified through conjugation of the epsilon-amino group of the Lysine side chain with (2-[2-(2-Amino-ethoxy)-ethoxy]-acetyl)2-(gamma-Glu)) [Example 166]"
experimental_readout = "cAMP Rel EC50, nM (1% HSA)"
obs_value = "724 nM"

[[record]]
binder = "YXQGTFTSDXSQXLDKKAQXAFIEYLLAGGPSSGAPPPSGSEE (AEEA-γGlu-C18 diacid on Lys; non-natural residues; amide; synthetic construct; SITE 2: note = 2-Aminoisobutyric Acid; SITE 10: note = 3-(4-Pyridyl)-L-alanine; SITE 13: note = alpha-methyl-leucine; SITE 17: note = Lysine is chemically modified through conjugation of the epsilon-amino group of the Lysine side chain with (2-[2-(2-Amino-ethoxy)-ethoxy]-acetyl)) [Example 1037]"
experimental_readout = "cAMP Rel EC50, nM (1% HSA)"
obs_value = "291 nM"


Form field cAMP Rel EC50, nM (1% HSA), entry YXQGTFTSDXSRXLDKKAQXAFIEXLIEGGPSSGAPPPSGS (Aib, 4Pal, αMeL, Me4Pal; lipidated Lys; C-terminal amide; synthetic construct; SITE 2: note = 2-Aminoisobutyric Acid; SITE 10: note = 3-(4-Pyridyl)-L-alanine; SITE 13: note = alpha-methyl-leucine; SITE 17: note = Lysine is chemically modified through conjugation of the epsilon-amino group of the Lysine side chain with (gamma-Glu)2-CO-(CH2)16-CO2H; SITE 20:) [Example 953] : 275 nM

Noted for YXQGTXTSDXSIXLDKKAQXAFIEYLEEGGPSSGAPPPE (synthetic construct; SITE 2: note = 2-Aminoisobutyric Acid; SITE 6: note = alpha-methyl-2-fluoro-L-phenylalanine; SITE 10: note = 3-(4-Pyridyl)-L-alanine; SITE 13: note = alpha-methyl-leucine; SITE 17: note = Lysine is chemically modified through conjugation of the epsilon-amino group of the Lysine) [Example 445] : its cAMP Rel EC50, nM (1% HSA) reads 448 nM

Data point: YXQGTFTSDFSQXLDKKAQXAFIEYLLEXGPSSGAPPPSGS (synthetic construct; SITE 2: note = 2-Aminoisobutyric Acid; SITE 13: note = alpha-methyl-leucine; SITE 17: note = Lysine is chemically modified through conjugation of the epsilon-amino group of the Lysine side chain with (2-[2-(2-Amino-ethoxy)-ethoxy]-acetyl)-(gamma-Glu)-CO-(CH2) 16-CO2H; SITE 20: n) [Example 151] ; cAMP Rel EC50, nM (1% HSA) = 1420 nM

Reference source for all entries: patent US20240270821A1
